# assay target: HIF-1α (Homo sapiens, UniProt Q16665)
# Construct: endogenous in cells; host or cells: ARPE-19 (ATCC CRL-2302)
# Sequence (Q16665 whole entry): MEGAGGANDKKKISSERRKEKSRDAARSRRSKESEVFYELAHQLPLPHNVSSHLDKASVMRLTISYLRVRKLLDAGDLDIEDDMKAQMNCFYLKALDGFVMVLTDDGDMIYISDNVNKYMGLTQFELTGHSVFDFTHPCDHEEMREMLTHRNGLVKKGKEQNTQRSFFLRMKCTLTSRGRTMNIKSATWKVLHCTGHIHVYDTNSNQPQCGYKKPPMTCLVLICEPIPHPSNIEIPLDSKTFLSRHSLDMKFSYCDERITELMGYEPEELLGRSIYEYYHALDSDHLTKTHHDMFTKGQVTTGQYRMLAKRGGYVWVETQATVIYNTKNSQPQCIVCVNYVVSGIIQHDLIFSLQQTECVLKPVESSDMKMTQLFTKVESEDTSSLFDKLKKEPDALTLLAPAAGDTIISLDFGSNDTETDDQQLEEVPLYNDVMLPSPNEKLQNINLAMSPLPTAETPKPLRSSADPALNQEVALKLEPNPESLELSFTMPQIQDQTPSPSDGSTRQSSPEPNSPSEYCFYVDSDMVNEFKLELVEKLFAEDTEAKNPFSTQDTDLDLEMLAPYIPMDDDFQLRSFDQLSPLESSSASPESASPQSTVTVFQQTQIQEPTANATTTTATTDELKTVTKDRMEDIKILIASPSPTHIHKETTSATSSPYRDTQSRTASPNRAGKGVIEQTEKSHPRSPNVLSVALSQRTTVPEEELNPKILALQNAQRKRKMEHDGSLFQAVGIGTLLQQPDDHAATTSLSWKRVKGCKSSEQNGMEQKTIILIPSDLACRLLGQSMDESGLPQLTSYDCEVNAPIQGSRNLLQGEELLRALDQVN
# test name: Analysis of HIF-1α protein expression (Western blot) in ARPE-19 cells under mixed hypoxic condition
# Assay type: cell-based
# test conditions: values marked * in the table, mixed hypoxic condition (1% oxygen + CoCl2) for 24 hours, concentration range at which HIF-1α expression is reduced by 50% vs untreated control, read-out: IC50 HIF-1α, Hypoxia(24h)
measured metric: DC50

{"columns": ["compound", "measurement"],
 "data": [
  ["O=C(NCc1cc(F)cc(-c2cnn(C3CCOC3)c2)c1)c1ncnc2nc(C3CCCC3)[nH]c12 (stereo not drawn) [Example 140]", "< 100 nM"],
  ["O=C1CC[C@H](c2nc3ncnc(C(=O)NCc4cc(F)cc(-c5cnn(-c6ccc(F)cc6)c5)c4)c3[nH]2)C1 [Example 88]", "100 to 1000 nM"],
  ["O=C(NCc1ccc(-c2cnn(-c3ccc(F)cc3)c2)cc1)c1ncnc2nc(C3CCCC3)[nH]c12 [Example 108]", "> 10000 nM"],
  ["O=C(NCc1cc(F)cc(-n2cc(-c3ccc(F)cc3)cn2)c1)c1ncnc2nc(C3CCCC3)[nH]c12 [Example 149]", "100 to 1000 nM"],
  ["[2H]C([2H])([2H])n1cc(Nc2cc(F)cc(CNC(=O)c3ncnc4nc(C5CCC(F)(F)C5)[nH]c34)c2)cn1 (stereo not drawn) [Example 152]", "< 100 nM"],
  ["CN1CCC(Nc2cc(F)cc(CNC(=O)c3ncnc4nc(C5CCCC5)[nH]c34)c2)CC1 [Example 129]", "1000 to 10000 nM"],
  ["O=C(NCc1cc(F)cc(-c2cnn(-c3ccc(F)cc3)c2)c1)c1ncnc2nc(C3CC4CCC3C4)[nH]c12 (stereo not drawn) [Example 114]", "100 to 1000 nM"],
  ["O=C(NCc1cc(F)cc(-c2cnn(-c3ccc(F)cc3)c2)c1)c1ncnc2nc(C3CCC(F)(F)C3)[nH]c12 (single isomer, unassigned) [84(E1)]", "< 100 nM"],
  ["Cc1nn(-c2ccc(F)cc2)cc1-c1cc(F)cc(CNC(=O)c2ncnc3nc(C4CCCC4)[nH]c23)c1 [Example 146]", "100 to 1000 nM"],
  ["Cn1cc(Nc2cc(F)cc(CNC(=O)c3ncnc4nc(C5CCC(F)(F)C5)[nH]c34)c2)cn1 (stereo not drawn) [Example 144]", "< 100 nM"],
  ["O=C(NCc1cc(F)cc(Nc2nnco2)c1)c1ncnc2nc(C3CCCC3)[nH]c12 [Example 134]", "100 to 1000 nM"],
  ["O=C(NCc1cc(F)cc(-c2cn(-c3ccc(F)cc3)nn2)c1)c1ncnc2nc(C3CCCC3)[nH]c12 [Example 119]", "100 to 1000 nM"]
]}

----------
# Test system: VEGF
# test name: Evaluation of VEGF protein secretion level (Human VEGF ELISA) in ARPE-19 cell medium under hypoxic conditions
# Assay type: cell-based
# test conditions: ARPE-19 cells; pretreated 2 hours, 24 hours hypoxic conditions; secreted VEGF in medium supernatant by ELISA; concentration range reducing VEGF by 50% vs untreated control; read-out: IC50 VEGF
pIC50: −log10 of the molar value.
pIC50: recorded values

{"columns": ["compound", "pIC50"],
 "data": [
  ["O=C(NCc1cc(F)cc(-c2cnn(-c3cc[s+]([O-])c3)c2)c1)c1ncnc2nc(C3CCCC3)[nH]c12 (centres unmarked)", "< 5.00"],
  ["O=C(NCc1cc(F)cc(-c2cnn(C3CCOC3)c2)c1)c1ncnc2nc(C3CCCC3)[nH]c12 (centres unmarked)", "< 5.00"],
  ["Cc1nn(-c2ccc(F)cc2)cc1-c1cc(F)cc(CNC(=O)c2ncnc3nc(C4CCCC4)[nH]c23)c1", "6.00 to 7.00"],
  ["O=C(NCc1cc(F)cc(-c2cnsc2)c1)c1ncnc2nc(C3CCCC3)[nH]c12", "6.00 to 7.00"],
  ["CS(=O)(=O)c1ccc(-n2cc(-c3cc(F)cc(CNC(=O)c4ncnc5nc(C6CCCC6)[nH]c45)c3)cn2)cc1", "6.00 to 7.00"]
]}

Each recorded value in this set is attributed to patent EP4567035A1.
